- tested_target: AgCyk3
- procedure_details: SPOT peptide array binding signal intensity (averaged, normalized) (arbitrary units (background-subtracted, floor 0; scale differs between SH3 domains)); higher = stronger binding of the SH3 domain to the peptide
Listing of entries alongside the reported SPOT peptide array binding signal intensity.
test_readout: SPOT peptide array binding signal intensity

| binder | inequality_operator | recorded_measurement |
| --- | --- | --- |
| KFIPSRPAPKPPSSA | ≤ | 0 |
| SLSRRRFSLPSMPNV | = | 6.5 |
| HRRRRVFSIPSLKSI | = | 18 |
| RLPAPPPPPRRGPAP | = | 3 |
| GDHPKGPPPPPPPDE | ≤ | 0 |
| RNNRPVPPPPPMRTT | = | 15 |
| RRASLFPRDPKRLRP | = | 3 |
| VRVKKRPLIRPLNSS | = | 6 |
| KIRRSSLMIPNPQQF | ≤ | 0 |
| APPPPPRRATPEKKP | ≤ | 0 |
| KRKRFNLLLPKPYLT | = | 3 |
| TPEIPPPLPPKIMVH | ≤ | 0 |
| SKSRLLIELPEGFFT | = | 1 |
| SGVRLPAPPPPPRRG | = | 2 |
| VRTRRRPPPPPIPST | = | 2 |
